Attribution: patent US8012985B2

System: B. canis
assay_details: Antibabesia activity in vitro against B. canis
Format: cell-based
Counter-ions that a name gives are not always drawn.
measurement_type: IC50

Reported IC50 for N=C(CCCCCCCCCCCCC(=N)N1CCCC1)N1CCCC1 [Compound 2.0, 2 HCl] : what is it?
< 50 nM

====

Test system: P. falciparum
assay_details: Antimalarial activity in vitro against P. falciparum (Desjardins test, [3H] hypoxanthine incorporation)
Assay type: cell-based
test_context: growth in vitro of P. falciparum
Structures can show the parent of a compound that is named as a salt.
Documented pIC50 across a set of compounds
# log scale: pIC50 equals minus log10 of the concentration in mol/L

Before answering, review these 5 worked examples.
Form: Entry = N=C1CCCN1CCCCCCCCCCCCN1CCCC1=N [Compound 24.0] | System = P. falciparum | pIC50 = ____
8.40

Form: Entry = CC(C)(C)OC(=O)N=C(NCCCCCCCCCCCCNC(=NC(=O)OC(C)(C)C)NC(=O)OC(C)(C)C)NC(=O)OC(C)(C)C [Compound 12.2] | System = P. falciparum | pIC50 = ____
5.72

Form: Entry = NC(CCCCCCCCCCCCC(N)=NO)=NO [Compound 1.15, 1,12-bis(N,N′-hydroxyamidinyl)dodecane] | System = P. falciparum | pIC50 = ____
5.46

Form: Entry = O=C(OCc1ccccc1)N1CCN=C1CCCCCCCCCCCCC1=NCCN1C(=O)OCc1ccccc1 [Compound 6.5] | System = P. falciparum | pIC50 = ____
4.92

Form: Entry = O=c1[nH]c(CCCCCCCCCCCCc2nsc(=O)[nH]2)ns1 [Compound 1.30] | System = P. falciparum | pIC50 = ____
7.70

More entries:
Form: Entry = CC(=O)ON=C(N)CCCCCCCCCCCCC(N)=NOC(C)=O [Compound 1.22, 1,12-bis(N,N′-acetoxyamidinyl)dodecane] | System = P. falciparum | pIC50 = ____
5.85

Form: Entry = O=C(Oc1ccc(F)cc1)N1CCN=C1CCCCCCCCCCCCC1=NCCN1C(=O)Oc1ccc(F)cc1 [Compound 6.8] | System = P. falciparum | pIC50 = ____
4.16

Form: Entry = O=S1NC(CCCCCCCCCCCCC2=NOS(=O)N2)=NO1 (centres unmarked) [Compound 1.28] | System = P. falciparum | pIC50 = ____
6.70

Form: Entry = NC(CCCCCCCCCCCCC(N)=NOC(=O)c1ccccc1)=NOC(=O)c1ccccc1 [Compound 1.23] | System = P. falciparum | pIC50 = ____
5.96

Form: Entry = CC1(C)CN=C(NCCCCCCCCCCCCNC2=NCCC2)NC1 [25.0, 2 TFA] | System = P. falciparum | pIC50 = ____
8.72

Form: Entry = CCOC(=O)ON=C(N)CCCCCCCCCCCCC(N)=NOC(=O)OCC [Compound 1.17] | System = P. falciparum | pIC50 = ____
5.92

Form: Entry = CCNC(=O)ON=C(N)CCCCCCCCCCCCC(N)=NOC(=O)NCC [Compound 1.24] | System = P. falciparum | pIC50 = ____
6.70

Form: Entry = CON=C(N)CCCCCCCCCCCCC(N)=NOC [Compound 1.16, 1,12-bis(N,N′-methoxyamidinyl)dodecane] | System = P. falciparum | pIC50 = ____
5.17

Form: Entry = NC(CCCCCCCCCCCCC(N)=NOC(=O)Oc1ccccc1)=NOC(=O)Oc1ccccc1 [Compound 1.19] | System = P. falciparum | pIC50 = ____
5.44

Form: Entry = CCOC(=O)NC(=N)CCCCCCCCCCCCC(=N)NC(=O)OCC [Compound 1.2] | System = P. falciparum | pIC50 = ____
6.52

Form: Entry = C(CCCCCCNC1=NCCC1)CCCCCNC1=NCCC1 [Compound 21.0] | System = P. falciparum | pIC50 = ____
8.42

Form: Entry = O=c1[nH]c(CCCCCCCCCCCCc2noc(=O)[nH]2)no1 [Compound 1.27] | System = P. falciparum | pIC50 = ____
5.04

====

Test system: P. falciparum
assay_details: Antimalarial activity in vitro against P. falciparum (Desjardins test, [3H] hypoxanthine incorporation)
Assay type: cell-based
test_context: growth in vitro of P. falciparum
measurement_type: IC50 (nM)
Provide only the numeric value, understood in nM.

Before answering, review these 2 worked examples.
Form: Entry = COC(=O)ON=C(N)CCCCCCCCCCCCC(N)=NOC(=O)OC | System = P. falciparum | IC50 = ____
1100

Form: Entry = C(CCCCCCC1=NCCN1)CCCCCC1=NCCN1 | System = P. falciparum | IC50 = ____
2

Field: next molecule
Form: Entry = CC(=N)NCCCCCCCCCCCCNC(C)=N | System = P. falciparum | IC50 = ____
2
